- subject_of_test: human melanocortin 1 receptor (human, UniProt Q01726 1-317)
- Sequence (Q01726 whole entry): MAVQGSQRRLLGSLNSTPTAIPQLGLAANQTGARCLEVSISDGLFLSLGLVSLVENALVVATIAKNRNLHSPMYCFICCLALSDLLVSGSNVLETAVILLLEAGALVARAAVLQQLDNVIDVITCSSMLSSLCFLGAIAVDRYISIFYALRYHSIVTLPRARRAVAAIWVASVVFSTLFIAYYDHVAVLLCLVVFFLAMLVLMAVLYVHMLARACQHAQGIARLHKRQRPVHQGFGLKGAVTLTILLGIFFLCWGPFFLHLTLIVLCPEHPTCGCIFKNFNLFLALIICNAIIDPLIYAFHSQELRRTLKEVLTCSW
- assay_notes: cell-based or functional assay
Positions of bridges follow the written chain, without caps; N, C: chain ends. Non-standard residues stand in square brackets, D forms with d. Phe(3,4-(OMe)2) = COc1ccc(C[C@H](N)C(=O)O)cc1OC; 1Nal = N[C@@H](Cc1cccc2ccccc12)C(=O)O; Hyp = O=C(O)[C@@H]1C[C@@H](O)CN1; Dab = NCC[C@H](N)C(=O)O
value_type: MC1R cAMP EC50 (nM)
Respond with the bare value in nM.

cyclo(CAH[dF][Dab]WCAH[dF][Dab]W) (disulfide 1-7; SMILES C[C@@H]1NC(=O)[C@@H]2CSSC[C@H](NC(=O)[C@H](Cc3c[nH]c4ccccc34)NC(=O)[C@H](CCN)NC(=O)[C@@H](Cc3ccccc3)NC(=O)[C@H](Cc3c[nH]cn3)NC1=O)C(=O)N[C@@H](C)C(=O)N[C@@H](Cc1c[nH]cn1)C(=O)N[C@H](Cc1ccccc1)C(=O)N[C@@H](CCN)C(=O)N[C@@H](Cc1c[nH]c3ccccc13)C(=O)N2, also called c[c[Cys-Ala-His-D-Phe-Dab-Trp-Cys]-Ala-His-D-Phe-Dab-Trp]) [Chem. 17] ... 104
cyclo(CH[dF]RW[dA]CH[dF]RW[dA]) (disulfide 1-7; SMILES C[C@H]1NC(=O)[C@H](Cc2c[nH]c3ccccc23)NC(=O)[C@H](CCCNC(=N)N)NC(=O)[C@@H](Cc2ccccc2)NC(=O)[C@H](Cc2c[nH]cn2)NC(=O)[C@@H]2CSSC[C@H](NC1=O)C(=O)N[C@@H](Cc1c[nH]cn1)C(=O)N[C@H](Cc1ccccc1)C(=O)N[C@@H](CCCNC(=N)N)C(=O)N[C@@H](Cc1c[nH]c3ccccc13)C(=O)N[C@H](C)C(=O)N2) [Chem. 6] ... 2.35
cyclo(CH[dF]RWACH[dF]RWA) (disulfide 1-7; SMILES C[C@@H]1NC(=O)[C@H](Cc2c[nH]c3ccccc23)NC(=O)[C@H](CCCNC(=N)N)NC(=O)[C@@H](Cc2ccccc2)NC(=O)[C@H](Cc2c[nH]cn2)NC(=O)[C@@H]2CSSC[C@H](NC1=O)C(=O)N[C@@H](Cc1c[nH]cn1)C(=O)N[C@H](Cc1ccccc1)C(=O)N[C@@H](CCCNC(=N)N)C(=O)N[C@@H](Cc1c[nH]c3ccccc13)C(=O)N[C@@H](C)C(=O)N2, also called c[c[Cys-His-D-Phe-Arg-Trp-Ala-Cys]-His-D-Phe-Arg-Trp-Ala]) [Chem. 5] ... 6.47
CXHFRWCXHFRW (Aib 2, 8; D-Phe 4, 10; disulphide Cys1-Cys7; head-to-tail amide Cys1-Trp12, also called c[c[Cys-Aib-His-D-Phe-Arg-Trp-Cys]-Aib-His-D-Phe-Arg-Trp]) [Chem. 9] ... 4.02

In: Please report the measured MC1R cAMP EC50 for cyclo(CAH[dF]R[1Nal]CAKKKW) (disulfide 1-7; SMILES C[C@@H]1NC(=O)[C@@H]2CSSC[C@H](NC(=O)[C@H](Cc3cccc4ccccc34)NC(=O)[C@H](CCCNC(=N)N)NC(=O)[C@@H](Cc3ccccc3)NC(=O)[C@H](Cc3c[nH]cn3)NC1=O)C(=O)N[C@@H](C)C(=O)N[C@@H](CCCCN)C(=O)N[C@@H](CCCCN)C(=O)N[C@@H](CCCCN)C(=O)N[C@@H](Cc1c[nH]c3ccccc13)C(=O)N2, also called c[c[Cys-Ala-His-D-Phe-Arg-1-Nal-Cys]-Ala-Lys-Lys-Lys-Trp]) [Chem. 64]
Out: 4.23

In: Please report the measured MC1R cAMP EC50 for cyclo(CPH[dF]R[Phe(3,4-(OMe)2)]CAKKKR) (disulfide 1-7, also called c[c[Cys-Pro-His-D-Phe-Arg-3,4-DiMeO-Phe-Cys]-Ala-Lys-Lys-Lys-Arg]) [Chem. 94]
Out: 113

In: Please report the measured MC1R cAMP EC50 for cyclo(C[Hyp][dF]RWC[Hyp][dF]RW) (bridge 1-6 via methylene bridge (S-CH2-S), also called c[c[Cys-Hyp-D-Phe-Arg-Trp-Cys]-Hyp-D-Phe-Arg-Trp]; Note: methylene bridge) [Chem. 26]
Out: 17.2
